Test system: ERK1/2 (Thr202/Tyr204) phosphorylation in KYSE520 cells
assay.explanation: Cellular Phospho-p44/42 MAPK (Erk1/2) (Thr202/Tyr204) assay, In-Cell Western
Format: cell-based
experimental.conditions: Homo sapiens, KYSE-520; KYSE520 cells, 1 hour incubation, pERK signal normalized to GAPDH; single assay or mean of multiple assays; read-out: Biological Example 2 IC50
Here, each record is paired with measured IC50 data.
recorded.metric: IC50 (µM)

>>> readout_number("N[C@@H]1c2ccccc2CC12CCN(c1ncc(Sc3n[nH]c4ncccc34)nn1)CC2")
0.011
>>> readout_number("Cc1ccc2c(c1)[C@@H](N)C1(CCN(c3ncc(Sc4ccnc(N)c4Cl)nn3)CC1)C2")
0.002
>>> readout_number("COc1cc2c(cc1Cl)[C@H](N)C1(CCN(c3ncc(Sc4ccnc(N)c4Cl)nn3)CC1)C2")
0.665
>>> readout_number("C[C@@H]1OCC2(CCN(c3ncc(Sc4c(Cl)cnc5[nH]ccc45)nn3)CC2)[C@@H]1N")
0.699

* * *

Here, each record is paired with measured IC50 data.
Test system: ERK1/2 (Thr202/Tyr204) phosphorylation in KYSE520 cells
assay.explanation: Cellular Phospho-p44/42 MAPK (Erk1/2) (Thr202/Tyr204) assay, In-Cell Western
Format: cell-based
experimental.conditions: Homo sapiens, KYSE-520; KYSE520 cells, 1 hour incubation, pERK signal normalized to GAPDH; single assay or mean of multiple assays; read-out: Biological Example 2 IC50
recorded.metric: IC50 (nM)

>>> readout_number("Nc1nccc(Sc2cnc(N3CCC4(CC3)Cc3ccccc3[C@H]4N)nn2)c1C1CC1")
208
>>> readout_number("CNc1nccc(Sc2cnc(N3CCC4(CC3)Cc3cc(C#N)ccc3[C@H]4N)nn2)c1Cl (single isomer, unassigned)")
19
>>> readout_number("Nc1nccc(Sc2cnc(N3CCC4(CC3)Cc3c(Cl)cccc3[C@H]4N)nn2)c1Cl")
9
>>> readout_number("Nc1nccc(Sc2cnc(N3CCC4(CC3)Cc3ncccc3[C@H]4N)nn2)c1Cl")
5
>>> readout_number("Nc1ccc(Oc2cnc(N3CCC4(CC3)Cc3ccccc3[C@H]4N)nn2)cn1")
17
>>> readout_number("Nc1nccc(Sc2cnc(N3CCC4(CC3)Cc3ccccc3[C@H]4N)nn2)c1Br")
2
>>> readout_number("Nc1cc(Sc2cnc(N3CCC4(CC3)Cc3ccccc3[C@H]4N)nn2)c(Cl)cn1")
8
>>> readout_number("N[C@@H]1c2ccccc2CC12CCN(c1ncc(Sc3ccnc4c3CCN4)nn1)CC2")
9

* * *

Tested on: ERK1/2 (Thr202/Tyr204) phosphorylation in KYSE520 cells
assay.explanation: Cellular Phospho-p44/42 MAPK (Erk1/2) (Thr202/Tyr204) assay, In-Cell Western
Type: cell-based
experimental.conditions: Homo sapiens, KYSE-520; KYSE520 cells, 1 hour incubation, pERK signal normalized to GAPDH; single assay or mean of multiple assays; read-out: Biological Example 2 IC50
pIC50: −log10 of the molar value.
recorded.metric: pIC50

>>> readout_number("N[C@@H]1c2ccccc2CC12CCN(c1ncc(Sc3n[nH]c4ccccc34)nn1)CC2")
7.29
>>> readout_number("N[C@@H]1c2ccccc2CC12CCN(c1ncc(Cc3ccccc3)nn1)CC2")
6.44
>>> readout_number("Cc1nc(N2CCC3(CC2)CO[C@@H](C)[C@H]3N)nnc1-c1cccc(Cl)c1Cl")
6.47
>>> readout_number("N[C@@H]1c2ccccc2CC12CCN(c1ncc(Sc3ccnc(C(F)(F)F)c3Cl)nn1)CC2")
7.11
>>> readout_number("N[C@@H]1c2ccccc2CC12CCN(c1ncc(Sc3cccc4c3CC4)nn1)CC2")
7.51
>>> readout_number("NC1C[C@@H]2CC[C@@H](C1)N2c1ncc(Sc2cccc(Cl)c2Cl)nn1 (some centres unmarked)")
5.95
>>> readout_number("Cn1ccc2c(Sc3cnc(N4CCC5(CC4)Cc4ccccc4[C@H]5N)nn3)ccnc21")
8.22
>>> readout_number("Cc1nccc(Sc2cnc(N3CCC4(CC3)CO[C@@H](C)[C@H]4N)nn2)c1Cl")
7.21

Origin of measurements: patent US11634417B2
